target: Albumin (Bos taurus); assay: compounds binding labelled BSA control protein – biochemical, small-molecule microarray, Alexa647 label, 635/667 nm fluorescence, artefact control for SMM control protein annotation, profiling panel (AID 1118); conditions: BSA-A647 binding, fluorescence 635 nm, higher = more signal;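 further: score merges 667 nm emission intensity and signal-to-noise per printed compound spot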
quantity_measured: composite z-score

[
  {
    "molecule": "NCCCCCNC(=O)[C@@H]1C[C@@H]2C(=O)N[C@@H](CCCCN)C(=O)N2[C@@H]1c1ccc(O)cc1",
    "measured_value": -0.321
  },
  {
    "molecule": "[N-]=[N+]=Nc1ccccc1C[C@]1(C(=O)O)COC(c2ccc(OCCCO)cc2)=N1",
    "measured_value": 0.638
  },
  {
    "molecule": "COc1ccc([Si](C)(C)[C@H]2[C@H](CC(=O)N(CCO)Cc3ccccc3)O[C@@]3(C(=O)N(C)c4c(Br)cc(C)cc43)[C@@H]2C)cc1",
    "measured_value": 0.509
  },
  {
    "molecule": "[N-]=[N+]=Nc1ccccc1C[C@@]1(C(=O)NCCN2CCOCC2)N=C(c2ccc(OCCCO)cc2)O[C@@H]1c1ccccc1N=[N+]=[N-]",
    "measured_value": 0.832
  },
  {
    "molecule": "O=C1O[C@@H](c2ccccc2)[C@@H](c2ccccc2)N2[C@@H](c3ccc(OCCO)cc3)[C@]3(C(=O)Nc4ccc(C#CC5=CCCCC5)cc43)[C@@H](C(=O)NC[C@H](O)c3ccccc3)[C@H]12",
    "measured_value": -0.948
  },
  {
    "molecule": "CCC1=C2CN(Cc3ccccc3)[C@@H](C(=O)Cc3ccccc3)C2C=CCC1 (stereo partly drawn)",
    "measured_value": 0.912
  },
  {
    "molecule": "CO[C@H]1O[C@H](CO)[C@@H](OC(=O)Nc2ccccc2)[C@H](OC(=O)c2cc3ccccc3[nH]2)[C@H]1OC(=O)c1cc2ccccc2[nH]1",
    "measured_value": 0.124
  },
  {
    "molecule": "C=CC[C@@H](OC(=O)Nc1ccc(OC)cc1)c1ccc(O)c(F)c1",
    "measured_value": 0.66
  }
]
